- protocolDescription: Cytotoxicity against human HEK293 cells assessed as cell viability measured for 24 hrs by MTT assay
- Type: cell-based
Class (by CC50 at 24 h) -- band A: < 10 µM; band B: ≥ 10 µM and < 20 µM; band C: ≥ 20 µM

For the record C=C(c1cc(Cl)cc(Cl)c1OCc1ccccc1)C1COC(C)(C)OO1 (centres undefined) , report the class its CC50 at 24 h corresponds to.
band C

For the record C=C(c1ccc(OC)c(F)c1)C1COC2(OO1)C1CC3CC(C1)CC2C3 (centres undefined) , report the class its CC50 at 24 h corresponds to.
band B

For the record C=C(c1ccc(OC)c(F)c1)C1COC2(CCCC2)OO1 (centres undefined) , report the class its CC50 at 24 h corresponds to.
band C

For the record C=C(c1ccc(Cl)cc1Cl)C1COC2(CCCC2)OO1 (centres undefined) , report the class its CC50 at 24 h corresponds to.
band B

For the record C=C(c1ccc(F)c(F)c1)C1COC2(CCCC2)OO1 (centres undefined) , report the class its CC50 at 24 h corresponds to.
band C

For the record C=C(c1ccc(Cl)cc1Cl)C1COC2(OO1)C1CC3CC(C1)CC2C3 (centres undefined) , report the class its CC50 at 24 h corresponds to.
band B

For the record C=C(c1ccc(Cl)c(Cl)c1Cl)C1COC2(OO1)C1CC3CC(C1)CC2C3 (centres undefined) , report the class its CC50 at 24 h corresponds to.
band C

For the record C=C(c1cc(Cl)cc(Cl)c1OCc1ccccc1)C1COC2(OO1)C1CC3CC(C1)CC2C3 (centres undefined) , report the class its CC50 at 24 h corresponds to.
band C

For the record C=C(c1cc(Cl)cc(Cl)c1OCc1ccccc1)C1COC2(CCCC2)OO1 (centres undefined) , report the class its CC50 at 24 h corresponds to.
band A

For the record C=C(c1ccc(F)c(F)c1)C1COC2(OO1)C1CC3CC(C1)CC2C3 (centres undefined) , report the class its CC50 at 24 h corresponds to.
band B

For the record C=C(c1ccc(Cl)cc1Cl)C1COC2(CCCCC2)OO1 (centres undefined) , report the class its CC50 at 24 h corresponds to.
band A

For the record C=C(c1ccc(Cl)c(Cl)c1)C1COC2(OO1)C1CC3CC(C1)CC2C3 (centres undefined) , report the class its CC50 at 24 h corresponds to.
band B

For the record C=C(c1ccc(Cl)c(Cl)c1Cl)C1COC2(CCCC2)OO1 (centres undefined) , report the class its CC50 at 24 h corresponds to.
band A

For the record C[C@@H]1CC[C@H]2[C@@H](C)C(=O)O[C@@H]3O[C@@]4(C)CC[C@@H]1[C@]32OO4 [ARTEMISININ] , report the class its CC50 at 24 h corresponds to.
band C

###

- protocolDescription: Selectivity ratio of IC50 for anticancer activity against human L02 cells to IC50 for anticancer activity against human HepG2 cells
- Assay type: toxicity, cell-based
- recordedConditions: L02 cells versus HepG2 cells, read-out: Ratio IC50
# note: exactly 0.7 is not below, so it is false; use true for selectivity ratio strictly under it

hey, is selectivity ratio for C=C(c1ccc(F)c(F)c1)C1COC2(CCCCC2)OO1 (stereo not drawn) lower than 0.7 or not?
true

hey, is selectivity ratio for C=C(c1ccc(F)cc1F)C1COC2(OO1)C1CC3CC(C1)CC2C3 (stereo not drawn) lower than 0.7 or not?
true

hey, is selectivity ratio for C=C(c1ccc(OC)c(F)c1)C1COC(C)(C)OO1 (stereo not drawn) lower than 0.7 or not?
true

hey, is selectivity ratio for C=C(c1ccc(Cl)cc1Cl)C1COC(C)(C)OO1 (stereo not drawn) lower than 0.7 or not?
true

hey, is selectivity ratio for C=C(c1ccc(OC)c(F)c1)C1COC2(OO1)C1CC3CC(C1)CC2C3 (stereo not drawn) lower than 0.7 or not?
true

hey, is selectivity ratio for C[C@@H]1CC[C@H]2[C@@H](C)C(=O)O[C@@H]3O[C@@]4(C)CC[C@@H]1[C@]32OO4 [ARTEMISININ] lower than 0.7 or not?
false

hey, is selectivity ratio for C=C(c1ccc(Cl)cc1Cl)C1COC2(CCCCC2)OO1 (stereo not drawn) lower than 0.7 or not?
true

hey, is selectivity ratio for C=C(c1ccc(Cl)c(Cl)c1)C1COC2(CCCCC2)OO1 (stereo not drawn) lower than 0.7 or not?
false

hey, is selectivity ratio for C=C(c1cc(Cl)cc(Cl)c1OCc1ccccc1)C1COC2(OO1)C1CC3CC(C1)CC2C3 (stereo not drawn) lower than 0.7 or not?
false

hey, is selectivity ratio for C=C(c1ccc(OC)c(F)c1)C1COC2(CCCC2)OO1 (stereo not drawn) lower than 0.7 or not?
true

hey, is selectivity ratio for C=C(c1cc(Cl)cc(Cl)c1OCc1ccccc1)C1COC(C)(C)OO1 (stereo not drawn) lower than 0.7 or not?
false

hey, is selectivity ratio for C=C(c1ccc(Cl)c(Cl)c1)C1COC2(OO1)C1CC3CC(C1)CC2C3 (stereo not drawn) lower than 0.7 or not?
true

hey, is selectivity ratio for C=C(c1cc(Cl)cc(Cl)c1OCc1ccccc1)C1COC2(CCCC2)OO1 (stereo not drawn) lower than 0.7 or not?
true

hey, is selectivity ratio for C=C(c1ccc(Cl)cc1Cl)C1COC2(OO1)C1CC3CC(C1)CC2C3 (stereo not drawn) lower than 0.7 or not?
true

hey, is selectivity ratio for C=C(c1ccc(Cl)c(Cl)c1Cl)C1COC2(OO1)C1CC3CC(C1)CC2C3 (stereo not drawn) lower than 0.7 or not?
true

hey, is selectivity ratio for C=C(c1ccc(F)cc1F)C1COC2(CCCC2)OO1 (stereo not drawn) lower than 0.7 or not?
false

hey, is selectivity ratio for C=C(c1ccc(Cl)cc1Cl)C1COC2(CCCC2)OO1 (stereo not drawn) lower than 0.7 or not?
true

###

- Test system: Plasmodium falciparum
- protocolDescription: Resistance index, ratio of IC50 for antiplasmodial activity against artemisinin-resistant Plasmodium falciparum Cam 3.1 R539 to IC50 for antiplasmodial activity against chloroquine-resistant Plasmodium falciparum INDO
- Format: functional
Threshold check on Ratio IC50: at or above 3 gives Yes, strictly below gives No.

Check this molecule for Ratio IC50 at or above 3: C[C@@H]1CC[C@H]2[C@@H](C)C(=O)O[C@@H]3O[C@@]4(C)CC[C@@H]1[C@]32OO4
No

Check this molecule for Ratio IC50 at or above 3: C=C(c1cc(Cl)cc(Cl)c1OCc1ccccc1)C1COC(C)(C)OO1 (stereo unspecified)
No

Check this molecule for Ratio IC50 at or above 3: C=C(c1ccc(Cl)c(Cl)c1)C1COC2(OO1)C1CC3CC(C1)CC2C3 (stereo unspecified)
No

Check this molecule for Ratio IC50 at or above 3: C=C(c1ccc(Cl)cc1Cl)C1COC2(CCCC2)OO1 (stereo unspecified)
Yes

Check this molecule for Ratio IC50 at or above 3: C=C(c1ccc(OC)c(F)c1)C1COC2(OO1)C1CC3CC(C1)CC2C3 (stereo unspecified)
Yes

Check this molecule for Ratio IC50 at or above 3: C=C(c1ccc(OC)c(F)c1)C1COC2(CCCC2)OO1 (stereo unspecified)
Yes

Check this molecule for Ratio IC50 at or above 3: C=C(c1ccc(F)c(F)c1)C1COC2(CCCC2)OO1 (stereo unspecified)
Yes

Check this molecule for Ratio IC50 at or above 3: C=C(c1ccc(Cl)cc1Cl)C1COC2(CCCCC2)OO1 (stereo unspecified)
Yes

Check this molecule for Ratio IC50 at or above 3: C=C(c1ccc(F)c(F)c1)C1COC2(OO1)C1CC3CC(C1)CC2C3 (stereo unspecified)
Yes

Check this molecule for Ratio IC50 at or above 3: C=C(c1cc(Cl)cc(Cl)c1OCc1ccccc1)C1COC2(OO1)C1CC3CC(C1)CC2C3 (stereo unspecified)
No

###

Can you tell me selectivity ratio for the items I'm about to list?
- protocolDescription: Selectivity ratio of IC50 for anticancer activity against human L02 cells to IC50 for anticancer activity against human HepG2 cells
- Type: toxicity, cell-based
- recordedConditions: L02 cells versus HepG2 cells, read-out: Ratio IC50
Hey, just send me the number, nothing else.

Item C=C(c1ccc(F)c(F)c1)C1COC2(CCCC2)OO1 (stereo unspecified) has what recorded selectivity ratio?
0.36

Item C=C(c1ccc(OC)c(F)c1)C1COC2(CCCCC2)OO1 (stereo unspecified) has what recorded selectivity ratio?
1.17

Item C=C(c1ccc(Cl)c(Cl)c1Cl)C1COC2(CCCC2)OO1 (stereo unspecified) has what recorded selectivity ratio?
0.13

Item C=C(c1ccc(Cl)c(Cl)c1Cl)C1COC(C)(C)OO1 (stereo unspecified) has what recorded selectivity ratio?
0.14

Item C=C(c1ccc(Cl)c(Cl)c1)C1COC2(CCCC2)OO1 (stereo unspecified) has what recorded selectivity ratio?
0.13

Item C=C(c1ccc(F)c(F)c1)C1COC2(OO1)C1CC3CC(C1)CC2C3 (stereo unspecified) has what recorded selectivity ratio?
0.48

###

Can you tell me selectivity ratio for the items I'm about to list?
- protocolDescription: Selectivity index, ratio of CC50 for human HEK293 cells to IC50 for antiplasmodial activity against chloroquine-resistant Plasmodium falciparum INDO
- Assay type: toxicity
- recordedConditions: HEK293 cells versus Plasmodium falciparum INDO
Hey, just send me the number, nothing else.

Item C=C(c1ccc(Cl)c(Cl)c1)C1COC2(OO1)C1CC3CC(C1)CC2C3 (stereo not given) has what recorded selectivity ratio?
599

Item C=C(c1cc(Cl)cc(Cl)c1OCc1ccccc1)C1COC2(OO1)C1CC3CC(C1)CC2C3 (stereo not given) has what recorded selectivity ratio?
2770

Item C=C(c1ccc(Cl)cc1Cl)C1COC2(CCCCC2)OO1 (stereo not given) has what recorded selectivity ratio?
145

Item C=C(c1ccc(OC)c(F)c1)C1COC2(OO1)C1CC3CC(C1)CC2C3 (stereo not given) has what recorded selectivity ratio?
3970

Item C=C(c1ccc(Cl)cc1Cl)C1COC2(CCCC2)OO1 (stereo not given) has what recorded selectivity ratio?
1350

Item C=C(c1ccc(F)c(F)c1)C1COC2(CCCC2)OO1 (stereo not given) has what recorded selectivity ratio?
895

Item C=C(c1ccc(Cl)cc1Cl)C1COC2(OO1)C1CC3CC(C1)CC2C3 (stereo not given) has what recorded selectivity ratio?
989

Item C[C@@H]1CC[C@H]2[C@@H](C)C(=O)O[C@@H]3O[C@@]4(C)CC[C@@H]1[C@]32OO4 has what recorded selectivity ratio?
4330

Item C=C(c1ccc(F)c(F)c1)C1COC2(OO1)C1CC3CC(C1)CC2C3 (stereo not given) has what recorded selectivity ratio?
1050

Item C=C(c1cc(Cl)cc(Cl)c1OCc1ccccc1)C1COC(C)(C)OO1 (stereo not given) has what recorded selectivity ratio?
811
